The entries below come with measured Percent Effect values attached.
# Test system: Mycobacterium tuberculosis
# test.protocol: Cornell M. t heat shock assay; note: in the data most compounds retested in dose-response had high values
# Type: functional, organism-based
# Design: dose or concentration left out as unconfirmed
Hit rate of the full screen: of about 69,000 compounds, about 950 (1.4%) showed an effect of 50% or more. For the sample, strong results were picked, then their nearest neighbours and some compounds at random.

| compound | Percent Effect (%) |
| --- | --- |
| O=C(O)C(F)(F)F.O=C(O)C(F)(F)F.O=C1CC(c2ccncc2)C2(CCN(CC3CC3)CC2)N1 (stereo not drawn) | -16.85 |
| Cc1ccc2c(c1)C(NC1CC1)CC21CCNCC1.Cl (stereo not drawn) | -15.52 |
| CC(CCSc1ccccc1)N1CCN(C(=O)c2cccs2)CC1 (stereo not drawn) | 96 |
| CN(C(=O)NCc1nccn1Cc1ccccc1)C1CC1 | -34.67 |
| CN(C)C(C(=O)N1CCSCC1)c1ccccc1F (stereo not drawn) | 7.911 |
| Cn1ccnc1CNC1CCCOc2c1ccc1ccccc21 (stereo not drawn) | 95.81 |
| O=C(O)C(F)(F)F.O=C(O)C(F)(F)F.O=C(c1ccnnc1)N1CCN2C[C@H](OCc3cccnc3)C[C@H]2C1 | -1.051 |
| CN(C)CCOCC1CN(Cc2cccc(F)c2)Cc2nccn2C1.O=C(O)C(F)(F)F.O=C(O)C(F)(F)F (stereo not drawn) | -23.51 |
| CN1C(=O)CC(c2ccccc2)C12CCN(CCO)CC2.O=C(O)C(F)(F)F (stereo not drawn) | 13.27 |
| Cc1cccc2c1OCCC2NCc1c(C)nn(C)c1N(C)C (stereo not drawn) | -4.09 |
| CC(CCSc1ccccc1)N1CCN(C(=O)c2ccccc2O)CC1 (stereo not drawn) | 35.88 |
| O=C(O)C(F)(F)F.O=C(c1cccs1)N1C[C@@H]2OCCN(CC3CCCO3)[C@@H]2C1 (stereo partly drawn) | -25.16 |
| CN(Cc1ccc(-n2cccn2)cc1)C[C@@H]1CCCN2CCCC[C@H]12 | -24.54 |
| Cc1ccc2c(c1)C(NCc1nnc3n1CCCCC3)CCCO2 (stereo not drawn) | -13.54 |
| O=C(C1=CCCC1)N1CCC2(CC1)CC(Oc1cccnc1)CO2.O=C(O)C(F)(F)F (stereo not drawn) | -14.4 |
| CN(C)C(C(=O)N1CCC(N2CCSCC2)CC1)c1ccccc1F (stereo not drawn) | 64.18 |
| CCN1C[C@H]2[C@@H](C1)N(C(=O)Cc1ccsc1)CC[C@H]2OC.O=C(O)C(F)(F)F | -3.863 |
| Cc1ccc(CN2CCOC3(CCN(CC4CCOC4)CC3)C2)cc1.O=C(O)C(F)(F)F.O=C(O)C(F)(F)F (stereo not drawn) | 35.27 |
